The measurements presented in this section are drawn from PubChem BioAssay (NCI).

- Tested on: 786-0 renal
- Experimental Details: NCI-60 one-dose screen, 48 h (100 = growth as untreated, 0 = no growth, -100 = all killed)
- Conditions: 10 µM unless noted
This is part of a sample that, as a whole, favours compounds with a hit. Of some 83,000 tested, about 20% had one in any assay.
# reported growth; entries follow
Result Type: growth (%)

| Compound | Result Type | Units Label | Measured |
| --- | --- | --- | --- |
| CCN(C(=O)N1CCN(c2cc3c(cc2F)c(=O)c(C(=O)O)cn3C2CC2)CC1)c1nc(-c2ccc(C)cc2)cs1 | growth | % | 15.6 |
| CCN1C(=O)N(CC)C2C1NN=C1SCC(=O)N12 (configuration not stated) | growth | % | 95.8 |
| CC(=O)Nc1c(Cl)cc(Cl)c2c1Cc1cc([N+](=O)[O-])ccc1-2 | growth | % | 75.7 |
| N#C/C(=C\c1ccc(Cl)cc1Cl)C(=O)Nc1ncc(Cc2ccc(Cl)c(Cl)c2)s1 | growth | % | 93.2 |
| COC(=O)/C=C1/SC(=Nc2cccc(Cl)c2)N(CCc2c[nH]c3ccc(O)cc23)C1=O | growth | % | 19.1 |
| Cc1ccc(/C=C(\C#N)C(=O)Nc2ncc(Cc3cc(Cl)ccc3Cl)s2)o1 | growth | % | 46.9 |
| COc1ccc2c(c1)c(-c1nonc1-c1c[nH]c3ccc(Br)cc13)cn2C | growth | % | 58.6 |
| COc1ccc(Cc2cnc(NC(=O)c3sc4ccccc4c3Cl)s2)cc1 | growth | % | 36.7 |
| Cc1c2cnccc2c(C)c2c1c1cc(C3OCCCO3)ccc1n2C | growth | % | 11.8 |
| CC1(C)CC2=C3C=C[C@@H]4[C@@]5(C)CC[C@H](O)C(C)(C)[C@@H]5CC[C@@]4(C)[C@]3(C)CC[C@@]2(C(=O)O)CC1=O | growth | % | 21.1 |
| Cn1cc(C(=O)c2nc(-c3c[nH]c4ccc(Br)cc34)no2)c2cc(Br)ccc21 | growth | % | 99.4 |
| COc1ccc(-c2cc(-c3cc(OC)c(OC)c(OC)c3)c(C#N)c(=O)n2CCCCCC(=O)NO)cc1 | growth | % | 101 |
| Nc1c(C(=O)O)cc(Cl)cc1[N+](=O)[O-] | growth | % | 96.1 |
| O=S(=O)(c1ccccc1)N1CCCN(c2nc(-c3ccccc3)nc3nc(-c4ccccc4)oc23)CC1 | growth | % | 102 |
| COc1cc2c3c(c1O)-c1ccccc1[C@@H]1OC(=O)N(CC2)[C@H]31 | growth | % | 102 |
| O=C(O)CCCc1cnc2c3sccc3nc(SCc3c(Cl)cccc3Cl)n12 | growth | % | 38.5 |
| O=C(Nc1ccccc1O)c1ccccc1Nc1ccnc(C(F)(F)F)c1 | growth | % | 104 |
